Listing: self-aminoacylation of selected sequences
# System: biotinyl-Ile-oxazolone
# run-description: self-aminoacylation, catalytic enhancement (BIO) (fold over background); higher = more active; k-Seq, kA / k0A0; sequences stand for … in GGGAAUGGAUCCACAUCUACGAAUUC…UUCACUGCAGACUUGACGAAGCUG
Fewer inactive variants are shown than the library holds.
Give only the figure.

| seq-text | self-aminoacylation |
| --- | --- |
| GUAAUUCAAACAAUCGGUCUG [Fam1A.1 aminoacylation ribozyme variant] | 1.05 |

Problem: What value of self-aminoacylation has been reported for the following sequence? AUUCACCGAGGUCAUCGGGUC [Fam2.2 aminoacylation ribozyme variant]
Solution: 2.18

Problem: Now this one: AUUCACCUAGGUCCUUGGGUG [Fam2.2 aminoacylation ribozyme variant]
Solution: 2.7

Problem: Now this one: GCACACUACAAGCAAUCGGUC [Fam1B.1 aminoacylation ribozyme variant]
Solution: 1.36

Problem: Now this one: AUUUCCCUGGUCCUCGAGUGA [Fam2.1 aminoacylation ribozyme variant]
Solution: 2.08

Problem: Now this one: AAAUUUGCUAAUAGUAGCAAG [Fam3.1 aminoacylation ribozyme variant]
Solution: 1.59

Hey, just so you know, these numbers are from the supplement of paper PMC9233669.
